Values from BigSolDB 2.1

experimentalContext: in THF, 283.15 K
property: solubility (mole fraction)
Enter the number alone.

Ask: Using known records, supply solubility (mole fraction) for "O=C(O)c1cccc(C(=O)O)n1"
Reply: 0.00275

----------
experimentalContext: in ethanol, 303.15 K
property: solubility (mole fraction)
Enter the number alone.

Ask: Using known records, supply solubility (mole fraction) for "O=C(O)c1cccc(C(=O)O)n1"
Reply: 0.00846

----------
experimentalContext: in ethanol, 318.15 K
property: solubility (mole fraction)

Ask: Using known records, supply solubility (mole fraction) for "O=C(O)c1cccc(C(=O)O)n1"
Reply: 0.0142

----------
experimentalContext: in toluene, 288.15 K
property: solubility (mole fraction)
Enter the number alone.

Ask: Using known records, supply solubility (mole fraction) for "O=C(O)c1cccc(C(=O)O)n1"
Reply: 0.000848

----------
experimentalContext: in toluene, 298.15 K
property: solubility (mole fraction)
Enter the number alone.

Ask: Using known records, supply solubility (mole fraction) for "O=C(O)c1cccc(C(=O)O)n1"
Reply: 0.00175
